Ref: PubChem BioAssay

# target: L-lactate dehydrogenase (Plasmodium falciparum (isolate CDC / Honduras)) (UniProt Q27743)
# Sequence (Q27743 whole entry, looked up): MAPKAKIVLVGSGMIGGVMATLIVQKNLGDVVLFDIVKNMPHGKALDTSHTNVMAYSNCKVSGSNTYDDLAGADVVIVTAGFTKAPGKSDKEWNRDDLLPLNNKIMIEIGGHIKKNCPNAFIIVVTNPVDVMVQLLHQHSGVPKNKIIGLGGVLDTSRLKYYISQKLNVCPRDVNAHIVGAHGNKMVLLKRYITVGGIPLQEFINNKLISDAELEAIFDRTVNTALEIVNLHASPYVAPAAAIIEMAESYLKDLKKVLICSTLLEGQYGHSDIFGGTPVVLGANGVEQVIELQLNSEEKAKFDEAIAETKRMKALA
# test_summary: PfLDH activity inhibition – cell lysate, 3D7 strain, counter-screen for P. falciparum growth inhibition project (AID 2304);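 further: 0% = vehicle and 100% = reference inhibitor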
# reported_conditions: P. falciparum 3D7 crude extract, LDH APAD/NBT absorbance; at 2 µM; active compounds read high
Listed below: inhibition values for each entry.
Your answer is read as %, so omit the unit and give the number.

query: Consider the compound "Cc1cccc2[nH]c(-c3ccc(-c4cccc(CN5CCC(CO)CC5)c4)s3)nc12" and give its measured inhibition.
result: -8

query: Consider the compound "COc1cc(-c2nc(-c3ccccc3)c(-c3ccc(C(=O)c4ccc(F)cc4)cc3)[nH]2)cc(OC)c1O" and give its measured inhibition.
result: -3

query: Consider the compound CCCN(CC1CC1)c1ncc(-c2cccc(CNCCC3CCCN3C)c2)cn1 (stereo not given) and give its measured inhibition.
result: 7

query: Consider the compound "COc1ccc(C=NNc2ccnc3ccccc23)c2ccccc12" and give its measured inhibition.
result: 0

query: Consider the compound NC1=NC(c2ccccc2)N(c2ccc(Cl)c(Cl)c2)C(N)=N1 (stereo not given) and give its measured inhibition.
result: -2

query: Consider the compound "O=C(Nc1ccc2c(c1)OCCO2)c1cc(-c2cccnc2)nc2ccc(Cl)cc12" and give its measured inhibition.
result: -1

query: Consider the compound "Cc1csc(-c2nc(NCCc3c(C)noc3C)ncc2-c2ccsc2)n1" and give its measured inhibition.
result: -4

query: Consider the compound N#Cc1ccc2c(c1)CCN(CCC1CCC(NC(=O)/C=C/c3ccc(F)c4ccccc34)CC1)CC2 (stereo not given) and give its measured inhibition.
result: -2

query: Consider the compound "O=C1OC2(CCN(Cc3cccc(-c4ncc[nH]4)c3)CC2)CN1CCNCc1ccccc1" and give its measured inhibition.
result: -1

query: Consider the compound "CC(C)(C)c1nn(-c2ccc(Cl)cc2)c2[nH]c(=O)c(CNC3CCCC3)cc12" and give its measured inhibition.
result: 1

---

# target: L-lactate dehydrogenase (Plasmodium falciparum (isolate CDC / Honduras))
# test_summary: PfLDH activity inhibition – cell lysate, 3D7 strain, counter-screen for P. falciparum growth inhibition project (AID 2304);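 further: 0% = vehicle and 100% = reference inhibitor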
# reported_conditions: P. falciparum 3D7 crude extract, LDH APAD/NBT absorbance; at 2 µM; active compounds read high
value_type: inhibition (%)
Your answer is read as %, so omit the unit and give the number.

Known inhibition results, listed for orientation:
[
  {
    "molecule": "CCC(CC)(Cc1ccccc1)NC(=O)[C@H](Cc1ccc(OC)c(OC)c1)Nc1ccc(C#N)c2ccccc12",
    "value_type": "inhibition",
    "endpoint_unit": "%",
    "measured_value": 0
  },
  {
    "molecule": "COc1ccc(CN2CCCN(Cc3ccc(C(=O)Nc4ccc(Cl)cc4)cc3)CC2)cc1",
    "value_type": "inhibition",
    "endpoint_unit": "%",
    "measured_value": 0
  },
  {
    "molecule": "CCOc1cc(C(=O)NCc2cc(Cl)cc(Cl)c2)ccc1-c1nc2ccc(Cl)cc2[nH]1",
    "value_type": "inhibition",
    "endpoint_unit": "%",
    "measured_value": -3
  },
  {
    "molecule": "NC1=NC(C=Cc2ccccc2)N(OCCCCCCON2C(N)=NC(N)=NC2C=Cc2ccccc2)C(N)=N1 (centres undefined)",
    "value_type": "inhibition",
    "endpoint_unit": "%",
    "measured_value": 3
  },
  {
    "molecule": "CC(C)C1=C[C@H]2C[C@]3(C4OCCO4)[C@@H]4CC[C@@H](C)[C@H]4C[C@@]2(C(=O)OCC2COCO2)[C@]13C(=O)OC(c1ccccc1)c1ccccc1 (some centres undefined)",
    "value_type": "inhibition",
    "endpoint_unit": "%",
    "measured_value": 4
  },
  {
    "molecule": "O=C(NCCCCCN1CCC(c2c[nH]c3ccccc23)CC1)Nc1ccc(Cl)cc1Cl",
    "value_type": "inhibition",
    "endpoint_unit": "%",
    "measured_value": -2
  },
  {
    "molecule": "CCOC(=O)CCc1cc(F)c(F)c(OC[C@H](O)CNC(C)(C)C(O)c2ccc3ccccc3c2)c1 (some centres undefined)",
    "value_type": "inhibition",
    "endpoint_unit": "%",
    "measured_value": -4
  },
  {
    "molecule": "NCC1CCCN1Cc1cccc(-c2ccc(-c3nc4ccccc4[nH]3)s2)c1 (centres undefined)",
    "value_type": "inhibition",
    "endpoint_unit": "%",
    "measured_value": 3
  }
]

Now consider a different molecule.
query: Consider the molecule "CC(C)CNCc1cccc(-c2ccc(CN(C(=O)NCCc3ccccc3)C3CCN(Cc4ccccc4)CC3)cc2)c1" and give its measured inhibition.
result: 5

---

# test_summary: HepG2 cytotoxicity, primary screen, cytotoxicity control for P. falciparum antimalarial project, cell-based, ATP luminescence (AID 2303);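 further: 0% = DMSO wells and 100% = digitonin-killed cells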
# reported_conditions: HepG2 viability, 24-48 h, at 10 µM, active compounds read high
Please respond with Satisfied when measured inhibition is strictly beneath 30%, and with Not satisfied in all other cases.

[
  {
    "compound": "Cc1cccc2[nH]c(-c3cccc(-c4cccc(NC(=O)c5cn(C)c(=O)n5C)c4)c3)nc12",
    "class": "Satisfied"
  },
  {
    "compound": "CN(C)C(CNC(=O)c1cc(-c2ccncc2)c(-c2ccc(Cl)c(O)c2)o1)c1ccccc1 (centres undefined)",
    "class": "Satisfied"
  },
  {
    "compound": "Cc1cc(Br)cnc1CCCCNc1cc(=O)c2ccccc2[nH]1",
    "class": "Satisfied"
  }
]

query: Lab note: confirm whether the reported inhibition for this compound is below 30%, equality not counting. compound: "COc1cccc(CNc2noc(-c3c(-c4ccccc4)noc3C)n2)c1OC"
result: Satisfied

---

# test_summary: inhibition of 3D7 malaria parasite growth – strain 3D7 (AID 2306);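 further: 0% = DMSO wells and 100% = chloroquine plus artemisinin control wells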
# reported_conditions: P. falciparum 3D7 erythrocytic growth, LDH absorbance, 72 h; at 2 µM; active compounds read high
Listed below: growth inhibition values for each entry.
Your answer is read as %, so omit the unit and give the number.

Known growth inhibition results, listed for orientation:
[
  {
    "molecule": "CCc1c[nH]c2c(N3CCCC3=O)cc(C(=O)N[C@@H](Cc3ccccc3)[C@H](O)CNC3CCCCC3)cc12",
    "growth inhibition / %": 100
  },
  {
    "molecule": "CC(CN1CCN(C)CC1)C(=O)Nc1ccc(-c2cccc(-c3nc4ccccc4[nH]3)c2)cc1 (centres undefined)",
    "growth inhibition / %": 94
  },
  {
    "molecule": "CC1(C)CN2CCCC2c2cc(NC(=O)/C=C/c3ccccc3Cl)ccc21 (centres undefined)",
    "growth inhibition / %": 88
  },
  {
    "molecule": "O=C(/C=C/c1ccc(Cl)c(Cl)c1)NCCCCCN1CCC(NC(=O)Nc2cccc(Cl)c2Cl)CC1",
    "growth inhibition / %": 104
  },
  {
    "molecule": "CN1CCN(c2ccnc3ccc(NC(=O)Nc4cccc5c(C#N)cccc45)cc23)CC1",
    "growth inhibition / %": 91
  }
]

query: Consider the molecule "CN1CCN(c2ccc(-c3cccc(NC(=O)c4cccc(Cl)c4)c3)nn2)CC1" and give its measured growth inhibition.
result: 94

query: Consider the molecule "CCOc1cc(Cc2cnc(N)nc2N)cc(OC)c1OC" and give its measured growth inhibition.
result: 90

query: Consider the molecule "COc1cc(Cl)c(C)cc1-n1cc(C(=O)c2cc(Br)ccc2O)cc(C#N)c1=O" and give its measured growth inhibition.
result: 95

query: Consider the molecule "O=S(=O)(NCCN1CCCC1)c1ccc(-c2ccc(CNC3Cc4ccccc4C3)cc2)cc1" and give its measured growth inhibition.
result: 99

---

# target: L-lactate dehydrogenase (Plasmodium falciparum (isolate CDC / Honduras)) (UniProt Q27743)
# test_summary: PfLDH activity inhibition – cell lysate, 3D7 strain, counter-screen for P. falciparum growth inhibition project (AID 2304);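 further: 0% = vehicle and 100% = reference inhibitor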
# reported_conditions: P. falciparum 3D7 crude extract, LDH APAD/NBT absorbance; at 2 µM; active compounds read high
Listed below: inhibition values for each entry.
Your answer is read as %, so omit the unit and give the number.

Known inhibition results, listed for orientation:
[
  {
    "compound": "CN(C)Cc1c(O)ccc2[nH]c(-c3ccc(F)cc3F)nc12",
    "value_type": "inhibition",
    "endpoint_unit": "%",
    "measured_value": -2
  },
  {
    "compound": "CS(=O)(=O)c1ccc(CCNCc2ccc(-c3ccc(CN(C(=O)C4CC(=O)c5ccccc54)C4Cc5ccccc5C4)cc3)nc2)cc1 (stereo not given)",
    "value_type": "inhibition",
    "endpoint_unit": "%",
    "measured_value": -7
  },
  {
    "compound": "COc1ccccc1C(C)NCC(=O)Nc1cccc(C(=O)Nc2cccc(C(F)(F)F)c2)c1 (stereo not given)",
    "value_type": "inhibition",
    "endpoint_unit": "%",
    "measured_value": 5
  },
  {
    "compound": "CCCc1cc(Cc2cnc(N)nc2N)cc2c1OC(C)C2C (stereo not given)",
    "value_type": "inhibition",
    "endpoint_unit": "%",
    "measured_value": -3
  }
]

Now consider a different compound.
query: Consider the compound "CC(C)N1CCC(NCc2ccc(-c3ccc(Cl)cc3)cc2)CC1" and give its measured inhibition.
result: -3
